Target: T1, rHuman CD44/Fc Chimera, CF (R&D Systems Cat#3660-CD) (human, UniProt P16070 21-220)
T1 construct: Bought recombinant Fc chimera; Fc part of the bought chimera not given
Assay: ECL multispot (MSD), antigen spotted, Fab in solution;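 note: purified Fab incubated 1 h at 20 °C on antigen-spotted wells, bound Fab detected via TAG detection antibody, ECL compared with each well's blank, ratio of 4 or above scored as hit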
ECL signal listing for selected binders.
Lab note: jot the number down without any unit.

Worked examples, 2 binders total:
The recorded ECL signal for Fab VH1-46_IGHD6-6*01_IGHJ1*01 S102A/S103P/S104F/H111F (APFF) & L6_IGKJ1*01 S28N (Fab, V domains shown, Fab; VH cloned into Plasmid A (CH1, His6 and Flag tags) and VL into Plasmid C (kappa CL); also called APFF / S28N) VH: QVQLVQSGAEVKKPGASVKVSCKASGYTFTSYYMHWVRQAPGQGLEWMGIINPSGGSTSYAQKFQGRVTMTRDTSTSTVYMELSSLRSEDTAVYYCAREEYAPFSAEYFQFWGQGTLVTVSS VL: EIVLTQSPATLSLSPGERATLSCRASQNVSSYLAWYQQKPGQAPRLLIYDASNRATGIPARFSGSGSGTDFTLTISSLEPEDFAVYYCQQRSNWPPWTFGQGTKVEIKR is 399

Documented ECL signal of Fab VH1-46_IGHD6-6*01_IGHJ1*01 S102A/S103P/S104F/H111F (APFF) & L6_IGKJ1*01 S28E (Fab, V domains shown, Fab; VH cloned into Plasmid A (CH1, His6 and Flag tags) and VL into Plasmid C (kappa CL); also called APFF / S28E) VH: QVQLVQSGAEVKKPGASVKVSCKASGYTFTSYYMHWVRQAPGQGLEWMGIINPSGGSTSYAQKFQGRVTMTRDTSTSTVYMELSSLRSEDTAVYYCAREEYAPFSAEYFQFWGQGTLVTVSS VL: EIVLTQSPATLSLSPGERATLSCRASQEVSSYLAWYQQKPGQAPRLLIYDASNRATGIPARFSGSGSGTDFTLTISSLEPEDFAVYYCQQRSNWPPWTFGQGTKVEIKR : 461

Further cases:
Record Fab VH1-46_IGHD6-6*01_IGHJ1*01 S102A/S103P/S104F/H111F (APFF) & L6_IGKJ1*01 S28I (Fab, V domains shown, Fab; VH cloned into Plasmid A (CH1, His6 and Flag tags) and VL into Plasmid C (kappa CL); also called APFF / S28I) VH: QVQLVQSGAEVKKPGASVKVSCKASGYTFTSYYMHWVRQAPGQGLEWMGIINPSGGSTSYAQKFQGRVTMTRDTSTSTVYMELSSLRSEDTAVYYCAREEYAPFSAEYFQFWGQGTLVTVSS VL: EIVLTQSPATLSLSPGERATLSCRASQIVSSYLAWYQQKPGQAPRLLIYDASNRATGIPARFSGSGSGTDFTLTISSLEPEDFAVYYCQQRSNWPPWTFGQGTKVEIKR . Reported ECL signal: 412
